Tested on: ACHN
Assay: Cytotoxicity against human ACHN cells after 48 hrs by sulforhodamine B assay
Assay type: functional
// returns Condition not met unless GI50 is strictly below 1000 nM, in which case Condition met

Record excerpt, results attached:
>>> print(df.to_string())
                               linenotation         labelvalue
0  O=C(N/N=C/c1cc(Cl)ccc1O)c1ccccc1Nc1ccnc(C(F)(F)F)c1      Condition met
1  CCN(CC)c1ccc(/C=N/NC(=O)c2ccc(Nc3ccnc(C(F)(F)F)c3)cc2)c(O)c1      Condition met
2  COc1ccc(C(=O)N/N=C/c2ccc(O)cc2O)cc1Nc1ccnc(C(F)(F)F)c1  Condition not met
3  O=C(N/N=C/c1ccccc1O)c1ccccc1Nc1ccnc(C(F)(F)F)c1      Condition met

Query molecule follows.
(Q) For this molecule, is GI50 lower than 1000 nM? O=C(N/N=C/c1ccc(O)cc1O)c1cccc(Nc2ccnc(C(F)(F)F)c2)c1
(A) Condition not met

====

Tested on: SN12C
Experiment: Cytotoxicity against human SN12C cells after 48 hrs by sulforhodamine B assay
Format: functional
Each entry below carries its reported GI50.
# unit: nM | format: bare number

>>> df
                               linenotation  quantity  endpointunit  recordedresult
0  CCN(CC)c1ccc(/C=N/NC(=O)c2ccc(Nc3ccnc(C(F)(F)F)c3)cc2)c(O)c1      GI50            nM             363
1  CCN(CC)c1ccc(/C=N/NC(=O)c2ccccc2Nc2ccnc(C(F)(F)F)c2)c(O)c1      GI50            nM             240

(Q) Reported GI50, molecule CCN(CC)c1ccc(/C=N/NC(=O)Cc2ccc(Nc3ccnc(C(F)(F)F)c3)cc2)c(O)c1 : ____
(A) 977

(Q) CCN(CC)c1ccc(/C=N/NC(=O)c2cccc(Nc3ccnc(C(F)(F)F)c3)c2)c(O)c1 , same question.
(A) 309

====

System: HOP-92
Experiment: Cytotoxicity against human HOP92 cells after 48 hrs by sulforhodamine B assay
Type: functional
Conditions: HOP-92, 48 h
quantity: log10(GI50) (log10 of the value in nM)
Parameter value (number): base-10 log of GI50 in nM.

A selection of reference data follows.
>>> print(df.to_string())
                               linenotation  targetdesc  recordedresult
0  CCN(CC)c1ccc(/C=N/NC(=O)Cc2ccc(Nc3ccnc(C(F)(F)F)c3)cc2)c(O)c1      HOP-92            3.24
1  O=C(N/N=C/c1ccc(O)cc1O)c1ccc(Nc2ccnc(C(F)(F)F)c2)cc1      HOP-92            4.20
2  O=C(N/N=C/c1cc(Cl)ccc1O)c1ccccc1Nc1ccnc(C(F)(F)F)c1      HOP-92            2.70
3  CCOc1cccc(/C=N/NC(=O)c2ccccc2Nc2ccnc(C(F)(F)F)c2)c1O      HOP-92            2.20

(Q) Reported log10(GI50), molecule CCN(CC)c1ccc(/C=N/NC(=O)c2ccccc2Nc2ccnc(C(F)(F)F)c2)c(O)c1 : ____
(A) 2.40

(Q) CCOc1cccc(/C=N/NC(=O)c2ccc(Nc3ccnc(C(F)(F)F)c3)cc2)c1O , same question.
(A) 2.80

(Q) O=C(N/N=C/c1ccccc1O)c1ccccc1Nc1ccnc(C(F)(F)F)c1 , same question.
(A) 2.20

(Q) O=C(Cc1ccc(Nc2ccnc(C(F)(F)F)c2)cc1)N/N=C/c1ccccc1O , same question.
(A) 3.40

(Q) COc1cccc(/C=N/NC(=O)c2ccccc2Nc2ccnc(C(F)(F)F)c2)c1O , same question.
(A) 2.20

(Q) O=C(N/N=C/c1ccc(O)cc1O)c1cccc(Nc2ccnc(C(F)(F)F)c2)c1 , same question.
(A) 3.20

====

Test: Cytotoxicity against human EKVX cells after 48 hrs by sulforhodamine B assay
Assay type: functional
quantity: GI50 (nM)
# unit: nM | format: bare number

A selection of reference data follows.
>>> print(df.to_string())
                               linenotation  quantity  recordedresult
0  CCOc1cccc(/C=N/NC(=O)Cc2ccc(Nc3ccnc(C(F)(F)F)c3)cc2)c1O      GI50            3980
1  CCN(CC)c1ccc(/C=N/NC(=O)Cc2ccc(Nc3ccnc(C(F)(F)F)c3)cc2)c(O)c1      GI50             398
2  O=C(N/N=C/c1ccc(O)cc1O)c1cccc(Nc2ccnc(C(F)(F)F)c2)c1      GI50            1000
3  COc1cccc(/C=N/NC(=O)c2ccccc2Nc2ccnc(C(F)(F)F)c2)c1O      GI50             251

Now take the following compound into account.
(Q) Reported GI50, compound CCOc1cccc(/C=N/NC(=O)c2ccc(Nc3ccnc(C(F)(F)F)c3)cc2)c1O : ____
(A) 1000

====

System: IGROV-1
Test: Cytotoxicity against human IGROV1 cells after 48 hrs by sulforhodamine B assay
Type: functional
Conditions: IGROV-1, 48 h
quantity: GI50 (nM)
# unit: nM | format: bare number

A selection of reference data follows.
>>> print(df.to_string())
                               linenotation  recordedresult
0  O=C(N/N=C/c1ccccc1O)c1ccccc1Nc1ccnc(C(F)(F)F)c1            15.8
1  CCN(CC)c1ccc(/C=N/NC(=O)Cc2ccc(Nc3ccnc(C(F)(F)F)c3)cc2)c(O)c1             501
2  CCOc1cccc(/C=N/NC(=O)Cc2ccc(Nc3ccnc(C(F)(F)F)c3)cc2)c1O            2510
3  COc1ccc(C(=O)N/N=C/c2ccc(O)cc2O)cc1Nc1ccnc(C(F)(F)F)c1             631
4  O=C(Cc1ccc(Nc2ccnc(C(F)(F)F)c2)cc1)N/N=C/c1ccccc1O             794
5  CCN(CC)c1ccc(/C=N/NC(=O)c2ccccc2Nc2ccnc(C(F)(F)F)c2)c(O)c1            79.4

Now take the following compound into account.
(Q) Reported GI50, compound O=C(N/N=C/c1ccc(O)cc1O)c1ccc(Nc2ccnc(C(F)(F)F)c2)cc1 : ____
(A) 15800
